Provenance of the data: ChEMBL document CHEMBL1126853

# study-system: Human immunodeficiency virus type 1 protease (Human immunodeficiency virus 1, UniProt Q72874)
attribute-measured: pIC50
Formally, pIC50 is defined as -log10 of the concentration c, with c in mol/L.

Example results:
molecule: CC1(C)S[C@H]([C@H](NC(=O)Cc2ccccc2)C(=O)NCc2ccccc2)NC1C(=O)NCCCNC(=O)[C@@H]1N[C@@H]([C@H](NC(=O)Cc2ccccc2)C(=O)NCc2ccccc2)SC1(C)C (some centres not stated)
numeric-result: 6.27
//
molecule: CC1(C)S[C@H]([C@H](NC(=O)Cc2ccccc2)C(=O)NCC(F)(F)F)NC1C(=O)NCCNC(=O)[C@@H]1N[C@@H]([C@H](NC(=O)Cc2ccccc2)C(=O)NCC(F)(F)F)SC1(C)C (some centres not stated)
numeric-result: 8.36
//
molecule: CC1(C)S[C@H]([C@H](NC(=O)Cc2ccccc2)C(=O)NCc2ccccc2)NC1C(=O)NCC(O)CNC(=O)[C@@H]1N[C@@H]([C@H](NC(=O)Cc2ccccc2)C(=O)NCc2ccccc2)SC1(C)C (some centres not stated)
numeric-result: 8.30
//
molecule: CCNC(=O)[C@@H](NC(=O)Cc1ccccc1)[C@@H]1NC(C(=O)NCCNC(=O)[C@@H]2N[C@@H]([C@H](NC(=O)Cc3ccccc3)C(=O)NCC)SC2(C)C)C(C)(C)S1 (some centres not stated)
numeric-result: 8.52
//
molecule: CCNC(=O)[C@@H](NC(=O)c1c(-c2ccccc2)noc1C)[C@@H]1NC(C(=O)NCCNC(=O)[C@@H]2N[C@@H]([C@H](NC(=O)c3c(-c4ccccc4)noc3C)C(=O)NCC)SC2(C)C)C(C)(C)S1 (some centres not stated)
numeric-result: 8.27
//
molecule: CCNC(=O)[C@@H](NC(=O)c1ccccc1)[C@@H]1NC(C(=O)NCCNC(=O)[C@@H]2N[C@@H]([C@H](NC(=O)c3ccccc3)C(=O)NCC)SC2(C)C)C(C)(C)S1 (some centres not stated)
numeric-result: 6.41

**Q:** Provide pIC50 value for the following molecule: CCNC(=O)[C@@H](NC(=O)c1ccccc1-c1ccccc1)[C@@H]1NC(C(=O)NCCNC(=O)[C@@H]2N[C@@H]([C@H](NC(=O)c3ccccc3-c3ccccc3)C(=O)NCC)SC2(C)C)C(C)(C)S1 (some centres not stated)
**A:** 8.00
